Entries and their pIC50
- MEASURED_TARGET: Neuraminidase (Influenza A virus)
- Set-up: species or system Influenza A virus (A/California/04/2009(H1N1))
pIC50: −log10 of the molar value.

STRUCTURE	pIC50
CCC(CC)O[C@@H]1C=C(C(=O)O)C[C@H](N/C(N)=N/C)[C@H]1NC(C)=O	8.76
CCC(CC)O[C@@H]1C=C(C(=O)O)C[C@H](N/C(N)=N/O)[C@H]1NC(C)=O	8.43

----------
- MEASURED_TARGET: Neuraminidase (Influenza A virus)
- EXPERIMENT_DESCRIPTION: Inhibition of Influenza A virus SN33 H1N1 neuraminidase using MU-NANA as substrate after 1 hr by spectrofluorometric analysis

MOLECULE	IC50 [nM]
CC(=O)N[C@H]1C([C@H](O)[C@H](O)CO)OC(C(=O)O)=C[C@@H]1NC(=N)NC(=O)CSc1ccc2ccccc2c1 (stereo partly specified)	20

----------
Catalogue of pIC50 values
- MEASURED_TARGET: Neuraminidase (Influenza A virus, UniProt B4URF0)
- Sequence (B4URF0 whole entry): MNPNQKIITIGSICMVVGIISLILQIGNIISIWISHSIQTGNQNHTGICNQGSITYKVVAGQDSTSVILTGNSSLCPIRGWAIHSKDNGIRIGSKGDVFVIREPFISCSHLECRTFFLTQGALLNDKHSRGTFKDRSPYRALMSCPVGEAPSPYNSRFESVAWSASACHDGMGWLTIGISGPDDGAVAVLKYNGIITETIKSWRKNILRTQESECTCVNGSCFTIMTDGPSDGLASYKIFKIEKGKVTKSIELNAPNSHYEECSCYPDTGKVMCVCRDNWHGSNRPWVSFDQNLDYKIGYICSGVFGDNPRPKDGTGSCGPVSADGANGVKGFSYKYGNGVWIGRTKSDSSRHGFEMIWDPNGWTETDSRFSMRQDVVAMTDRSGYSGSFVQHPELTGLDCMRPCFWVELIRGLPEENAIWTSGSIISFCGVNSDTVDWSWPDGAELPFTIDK
- Set-up: species or system Influenza A virus (A/Anhui/1/2005(H5N1))
pIC50: −log10 of the molar value.
READOUT_LABEL: pIC50

STRUCTURE	READOUT_LABEL	RECORDED_NUMBER
CCC(CC)O[C@@H]1C=C(C(=O)O)C[C@H](N/C(N)=N/C)[C@H]1NC(C)=O	pIC50	8.44
CCC(CC)O[C@@H]1C=C(C(=O)O)C[C@H](N/C(N)=N/O)[C@H]1NC(C)=O	pIC50	7.48
